The next entries give measured IC50 for EP2 (Homo sapiens).

| Smiles data | Unit label | IC50 |
| --- | --- | --- |
| CCOc1cc(F)ccc1CCNc1cc(-c2cc(OCC)c(-c3noc(=O)[nH]3)s2)ncn1 | µM | 0.015 |
| CSc1cc(-c2cc(NCCc3ccc(C)c(C)c3)ncn2)ccc1C(=O)O | µM | 0.13 |
| CCOc1cc(-c2cc(NCCc3ccc(OC)cc3OC)ncn2)sc1-c1noc(=O)[nH]1 | µM | 0.014 |
| CCOc1cc(-c2cc(NCCc3ccc(OC)c(Br)c3)ncn2)sc1C(=O)O | µM | 0.533 |
